The values you see were collected from the supplement of paper PMC10065799.

Tested on: Fer (mouse)
Assay: phosphorylation enrichment, bacterial display (enrichment ratio); higher = better substrate or ligand; peptides without Tyr show the background
The label depends only on phosphorylation enrichment: criterion met if it is at least 0.5, criterion not met if it is smaller.

Previously resolved entries follow.
DEDYLCREELA [POR_Y575_Y575C] ... criterion met
EEGNPYFSSAR [MCCC2_Y520_YF] ... criterion not met
RHFSSYSQMEN [PKP1_Y120_R116H] ... criterion met
DDKEFYSVHNK [MET_Y1235_Y1230D_YF] ... criterion not met
KKGIVYVFNGR [ITGAV_Y404_I405V] ... criterion not met

## Task Say whether FGSSSYGGAGG [RPA2_Y14_YF] shows phosphorylation enrichment of 0.5 or more.
## Result criterion not met

## Task Is phosphorylation enrichment at least 0.5? Consider ADLVQYFMEHH [PTPN11_Y80_E76D_YF]
## Result criterion not met

## Task Decide: phosphorylation enrichment of QFFQGYFNNNF [ZNF236_Y644_S643G] >= 0.5?
## Result criterion not met

## Task Confirm if phosphorylation enrichment reported for the sequence NFDRIYIFHLR [MYOF_Y1137_V1136I_YF] is 0.5 or above.
## Result criterion met

## Task Reported phosphorylation enrichment reaches at least 0.5 for RLNCIYFKDQT [RS1_Y165_W163C_YF] ?
## Result criterion met

## Task Dear colleague, could you confirm whether IVEELYAIPPD [PEAK1_Y797_S792I] has phosphorylation enrichment at or above 0.5?
## Result criterion met

---

Each entry below carries its reported phosphorylation enrichment.
Biological target: EPHB2 (UniProt P29323)
Sequence (P29323 whole entry, looked up): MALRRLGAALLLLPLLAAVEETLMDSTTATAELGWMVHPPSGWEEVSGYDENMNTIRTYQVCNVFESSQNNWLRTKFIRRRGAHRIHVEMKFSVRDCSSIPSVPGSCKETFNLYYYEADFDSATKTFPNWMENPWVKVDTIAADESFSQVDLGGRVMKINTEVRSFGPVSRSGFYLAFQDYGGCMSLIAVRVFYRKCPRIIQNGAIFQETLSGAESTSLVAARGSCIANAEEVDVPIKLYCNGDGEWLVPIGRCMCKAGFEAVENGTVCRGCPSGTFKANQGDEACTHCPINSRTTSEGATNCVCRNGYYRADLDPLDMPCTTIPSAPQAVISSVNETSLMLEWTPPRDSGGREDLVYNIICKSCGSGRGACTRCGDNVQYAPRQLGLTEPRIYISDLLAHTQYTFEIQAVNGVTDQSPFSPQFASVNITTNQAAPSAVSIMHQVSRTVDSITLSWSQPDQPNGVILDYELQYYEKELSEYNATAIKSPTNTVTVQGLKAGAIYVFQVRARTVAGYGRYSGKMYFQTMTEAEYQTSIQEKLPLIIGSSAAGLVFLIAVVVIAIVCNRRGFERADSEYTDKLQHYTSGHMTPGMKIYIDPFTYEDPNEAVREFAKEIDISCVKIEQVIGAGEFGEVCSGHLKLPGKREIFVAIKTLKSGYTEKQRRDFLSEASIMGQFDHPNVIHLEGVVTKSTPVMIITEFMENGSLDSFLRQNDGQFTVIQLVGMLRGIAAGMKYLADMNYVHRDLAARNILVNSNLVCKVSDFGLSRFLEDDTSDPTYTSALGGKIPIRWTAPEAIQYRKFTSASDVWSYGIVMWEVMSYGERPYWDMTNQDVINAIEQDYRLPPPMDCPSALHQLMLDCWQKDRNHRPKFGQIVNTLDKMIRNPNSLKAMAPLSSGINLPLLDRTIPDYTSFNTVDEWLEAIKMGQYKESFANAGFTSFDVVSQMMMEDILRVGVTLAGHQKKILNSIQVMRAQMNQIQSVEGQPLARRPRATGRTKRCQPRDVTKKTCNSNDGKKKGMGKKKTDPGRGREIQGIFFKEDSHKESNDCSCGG
Test: phosphorylation enrichment, bacterial display (enrichment ratio); higher = better substrate or ligand; peptides without Tyr show the background
Enter the number alone.

Look over these answered cases.
FLAVGYHKPYI [IDS_Y225_H229Y] ... 0.441
VVHSSYDEIEG [SEC24A_Y263] ... 0.549
PVQAAYQNVVA [HBB_Y131_K133N] ... 0.567

## Task Recorded phosphorylation enrichment for KPGLVYNKVNP [SPRED3_Y72] , please?
## Result 0.395

## Task What measured phosphorylation enrichment goes with ADVLDYIKALN [HPRT1_Y81_L78V] ?
## Result 0.534

---

Target: Fyn (UniProt P06241)
Sequence (P06241 whole entry, looked up): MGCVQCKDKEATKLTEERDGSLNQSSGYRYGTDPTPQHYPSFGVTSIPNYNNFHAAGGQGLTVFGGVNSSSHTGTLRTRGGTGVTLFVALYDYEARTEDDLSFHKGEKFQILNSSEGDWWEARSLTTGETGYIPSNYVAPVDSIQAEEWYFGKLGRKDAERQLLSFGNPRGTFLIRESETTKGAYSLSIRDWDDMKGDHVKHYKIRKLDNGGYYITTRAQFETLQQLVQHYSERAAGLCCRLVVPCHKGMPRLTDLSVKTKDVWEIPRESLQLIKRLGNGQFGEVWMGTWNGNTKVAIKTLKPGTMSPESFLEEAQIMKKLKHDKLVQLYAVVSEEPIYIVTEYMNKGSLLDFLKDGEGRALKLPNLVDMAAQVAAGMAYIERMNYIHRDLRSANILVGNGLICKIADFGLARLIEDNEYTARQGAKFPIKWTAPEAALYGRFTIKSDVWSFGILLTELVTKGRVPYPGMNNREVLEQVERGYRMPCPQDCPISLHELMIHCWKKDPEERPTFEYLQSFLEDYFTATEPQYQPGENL
Test: phosphorylation enrichment, bacterial display (enrichment ratio); higher = better substrate or ligand; peptides without Tyr show the background
Kindly return Met if reported phosphorylation enrichment is no lower than 0.8; return Not met if it is lower.

TFEFRYLEDQD [CNOT3_Y746_R750Q_YF] ... Not met
GGRKGYGGFSR [RECQL5_Y478_D480G] ... Not met

Below: the item to evaluate.
## Task Test whether the sequence DENRFYTRAAS [RPS19_Y54_W52R] records phosphorylation enrichment of 0.8 or higher.
## Result Not met

---

Target: SHP2-C SH2;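 also: peptide library displayed on the E. coli surface as eCPX fusions, selected cells deep-sequenced, score is each peptide's frequency after selection divided by its frequency in the input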
Assay: SH2 binding enrichment of the phosphorylated peptide, bacterial display (enrichment ratio); higher = better substrate or ligand; peptides without Tyr show the background
measurement type: SH2 binding enrichment
# respond with the number and nothing more

Below are worked cases with known answers.
RKKEEYKMAPY [F8_Y1990_L1994P] ... 1.02
NTEGGYCCICA [CRELD1_Y328_R329C] ... 0.693
YARECYSALPQ [SARS2_Y52_G51C] ... 0.753

## Task What SH2 binding enrichment value was documented for this sequence, FADIAYNFRRG [PAH_Y166_H170R_YF] ?
## Result 0.822

## Task Could you tell me which SH2 binding enrichment is on file for LNCIFYKDQTG [RS1_Y166_W163C_YF] ?
## Result 0.659

## Task Data request, read-out SH2 binding enrichment, for EGTGHYLCNAC [GATA5_Y208_D203E]
## Result 0.81

## Task # query: SH2 binding enrichment of entry PVQAAYQNVVA [HBB_Y131_K133N]
## Result 1.49

## Task Tell me the measured SH2 binding enrichment of FVHDNYVIQRT [CPS1_Y1450_R1453Q] , please.
## Result 0.596

## Task Item under review: MVIPNYSSWTE [UROC1_Y185_R188W] . Reported SH2 binding enrichment?
## Result 0.812

## Task Look up SH2 binding enrichment: PFSNSYENSLI [EPOR_Y489_P488S_YF]
## Result 1.13

## Task Given the entry ASKEPYFVHCI [MYO1D_Y585_R588H_YF] , report its measured SH2 binding enrichment.
## Result 0.886
